tested on: human liver microsomes, metabolic stability half-life; experiment: NCATS Human Liver Microsomal (HLM) Stability Profiling; details: higher = more stable; screened at 1 µM (by protocol)
Classify as follows. Reported half-life greater than or equal to 20 min: Y. Reported half-life below: N.

> print(dat)
                                   compound                           measured.target  category
1  CC(C)(C)c1ccc(-c2nc(SCC(=O)Nc3ccc(Cl)cc3)[nH]c(=O)c2C#N)cc1  human liver microsomes, metabolic stability half-life         N
2   Cc1csc(NC(=O)c2ccc(COc3cccc(Cl)c3)o2)n1  human liver microsomes, metabolic stability half-life         N
3  CC(C)(C)CC(=O)OCC(=O)[C@@]1(O)CC[C@H]2[C@@H]3CCC4=CC(=O)C=C[C@]4(C)[C@H]3[C@@H](O)C[C@@]21C  human liver microsomes, metabolic stability half-life         N
4   CCC(=O)c1ccc2c(c1)N(CCCN(C)C)c1ccccc1S2  human liver microsomes, metabolic stability half-life         N
5  COc1cc(N2CCN(C)CC2)ccc1Nc1nccc(-c2cn(C)c3cnccc23)n1  human liver microsomes, metabolic stability half-life         Y
6  COc1ccc([C@@H]2Sc3ccccc3NC(=O)[C@@H]2O)cc1  human liver microsomes, metabolic stability half-life         Y
7  O=C(Nc1ncc(-c2cc(C(F)F)nn2-c2c(Cl)cccc2Cl)s1)C1CC1  human liver microsomes, metabolic stability half-life         Y
8  COCC(=O)Nc1c(I)c(C(=O)NCC(O)CO)c(I)c(C(=O)N(C)CC(O)CO)c1I (centres undefined)  human liver microsomes, metabolic stability half-life         Y
9  O=C(c1ccc(F)cc1)N1CCC(C(=O)N2CCC(N3Cc4ccccc4C3=O)CC2)CC1  human liver microsomes, metabolic stability half-life         Y
